Procedure text: Acute toxicity in ICR mouse assessed as mortality at 50 mg/kg, ip administered as single dose measured after 2 hrs
Assay type: organism-based
Experimental conditions: in vivo, read-out: Activity
Outcome measure: mortality at 2 h (%)

# Molecular string, Value reported
rows = [
    ("O=C(Nc1ccc([N+](=O)[O-])cc1Cl)c1cc(F)ccc1O", 80),
]
